A collection of compounds and their measured CTG-3D luminescence at 96 h
# System: HCI-001 (organoid from a triple-negative breast cancer xenograft)
# method-summary: CTG-3D luminescence at 96 h relative to day-0 seeding control (ratio to day 0); higher = more growth / less cytotoxicity; PDxO 3D drug screen (set 2), 96 h, CTG-3D normalised to day-0 seeding control.
# assay-context: 0.1 µM; days in culture: 397
measured-attribute: CTG-3D luminescence at 96 h

>>> df
                                   compound  assay_result
0  CC(C)n1nc(-c2ccc3oc(N)nc3c2)c2c(N)ncnc21 [sapanisertib]          0.91
1  CCOc1ccn(-c2ccc(F)cc2)c(=O)c1C(=O)Nc1ccc(Oc2ccnc(N)c2Cl)c(F)c1 [ASLAN002]          1.93
2  CC(=O)c1c(C)c2cnc(Nc3ccc(N4CCNCC4)cn3)nc2n(C2CCCC2)c1=O [palbociclib]          2.47
3  CS(=O)(=O)CCNCc1ccc(-c2ccc3ncnc(Nc4ccc(OCc5cccc(F)c5)c(Cl)c4)c3c2)o1 [lapatinib]          1.37
4  O=C(c1cc(Cc2n[nH]c(=O)c3ccccc23)ccc1F)N1CCN(C(=O)C2CC2)CC1 [olaparib]           1.8
